biological target: Estrogen receptor beta (Rattus norvegicus)
Sequence (Q62986 whole entry): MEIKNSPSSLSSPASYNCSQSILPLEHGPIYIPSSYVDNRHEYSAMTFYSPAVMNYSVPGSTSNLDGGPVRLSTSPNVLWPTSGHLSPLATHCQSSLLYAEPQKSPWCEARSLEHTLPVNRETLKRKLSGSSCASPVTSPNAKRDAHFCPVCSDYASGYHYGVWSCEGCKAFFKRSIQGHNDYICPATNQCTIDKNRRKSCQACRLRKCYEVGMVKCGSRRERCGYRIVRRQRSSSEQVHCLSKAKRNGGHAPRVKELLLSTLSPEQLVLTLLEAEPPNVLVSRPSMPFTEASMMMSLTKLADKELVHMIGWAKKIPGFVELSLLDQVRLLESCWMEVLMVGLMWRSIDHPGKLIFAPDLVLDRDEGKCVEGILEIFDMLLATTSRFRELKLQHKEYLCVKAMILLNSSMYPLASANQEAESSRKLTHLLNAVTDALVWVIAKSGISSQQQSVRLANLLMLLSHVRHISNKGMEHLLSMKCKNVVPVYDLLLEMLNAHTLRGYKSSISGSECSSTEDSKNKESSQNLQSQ
Reported endpoint: pKi
pKi is defined as minus the log10 of a concentration measured in mol/L.

Guide cases for pKi, answers given:
>  <Structure as smiles>
CS(=O)(=O)c1ccc(-c2ccc3cc(O)ccc3c2Cc2ccc(OCCN3CCCCC3)cc2)cc1.Cl

>  <pKi>
7.62

$$$$
>  <Structure as smiles>
Cl.Oc1ccc2c(Oc3ccc(OCCN4CCCCC4)cc3)c(-c3ccc(F)cc3)ccc2c1

>  <pKi>
9.52

$$$$

In the following, a different molecule is considered.
Specify pKi for Cl.Oc1ccc(-c2ccc3cc(O)ccc3c2Cc2ccc(OCCN3CCCCC3)cc2)cc1 , system Estrogen receptor beta (Rattus norvegicus).
9.15
